# measuredTarget: hAT1R (Homo sapiens, UniProt P30556)
# measurementProtocol: BRET Gq biosensor assay, agonist response, HEK293 cells
# Format: cell-based
# condition: section of the 42nd table directly before the BRET P63 section
pEC50: −log10 of the molar value.
Quick rule: pEC50 of at least 7 means true (1), below that means false (0).

# count of solved cases: 5
CCCCC(=O)N(Cc1ccc(-c2cc(-c3ccc4ncccc4c3)ccc2-c2nn[nH]n2)cc1)[C@H](C(=O)O)C(C)C [Example 441]    false (0)
CCOc1nc2cccc(C(=O)O)c2n1Cc1ccc(-c2cc(-c3cc(OC(F)F)ccn3)ccc2-c2noc(=O)[nH]2)cc1 [Example 302]    true (1)
CCCCC(=O)N(Cc1ccc(-c2cc(-c3ccccc3)ccc2-c2nn[nH]n2)cc1)C1(C(=O)O)CCC1 [Example 270]    false (0)
CCCCC(=O)N(Cc1ccc(-c2cc(Nc3ccccc3)ccc2-c2nn[nH]n2)cc1)[C@H](C(=O)O)C(C)C [Example 449]    false (0)
CCCCC(=O)N(Cc1ccc(-c2cc(-c3cccc(OC)n3)ccc2-c2nn[nH]n2)cc1)C1(C(=O)O)CCCCC1 [Example 296]    false (0)

Incoming: Assess whether reported pEC50 for CCOc1nc2cccc(C(=O)O)c2n1Cc1ccc(-c2cc(Oc3ccccc3)ccc2-c2nn[nH]n2)cc1 [Example 330] sits at 7 or higher.
Outgoing: true (1)

Incoming: Reported pEC50 reaches at least 7 for CCc1nc2c(C)cc(C)nc2n1Cc1ccc(-c2cc(-c3cccc(C)c3)ccc2-c2nn[nH]n2)c(F)c1 [Example 267] ?
Outgoing: true (1)

Incoming: # bool: pEC50 of CCCc1nc(CC)c(C(N)=O)n1Cc1ccc(-c2cc(-c3ccccc3)ccc2-c2nn[nH]n2)cc1 [Example 398] >= 7
Outgoing: true (1)

Incoming: Entry CCCCC(=O)N(Cc1ccc(-c2cc(-c3ccccn3)ccc2-c2nn[nH]n2)cc1)C1(C(=O)O)CCCCC1 [Example 293] : is its pEC50 no less than 7?
Outgoing: false (0)

Incoming: Please tell me: is the compound CCCCC(=O)N(Cc1ccc(-c2cc(-c3ccc(NC(C)=O)cc3)ccc2-c2nn[nH]n2)cc1)C1(C(=O)O)CCCCC1 [Example 291] at or over 7 in terms of pEC50?
Outgoing: false (0)

* * *

# measuredTarget: hAT1R (Homo sapiens, UniProt P30556)
# Sequence (P30556 1-359): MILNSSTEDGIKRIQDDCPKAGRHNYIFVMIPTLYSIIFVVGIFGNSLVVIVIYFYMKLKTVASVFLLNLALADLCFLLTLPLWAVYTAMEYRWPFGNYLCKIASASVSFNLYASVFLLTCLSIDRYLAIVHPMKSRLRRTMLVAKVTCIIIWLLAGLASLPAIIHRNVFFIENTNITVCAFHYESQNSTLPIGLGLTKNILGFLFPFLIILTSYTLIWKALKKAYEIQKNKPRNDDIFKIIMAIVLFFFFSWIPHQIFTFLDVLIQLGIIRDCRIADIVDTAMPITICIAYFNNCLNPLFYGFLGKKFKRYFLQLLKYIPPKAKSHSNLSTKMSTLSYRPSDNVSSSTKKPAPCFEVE
# measurementProtocol: cell-based
# condition: agonist mode; read-out: BRET P63 EC50
endpoint: EC50

Solved entries (count: 5):
CCCCC1=NC2(CCOCC2)C(=O)N1Cc1ccc(-c2cc(-c3cccc(C)c3)ccc2-c2nn[nH]n2)cc1 [Example 155]    > 100 µM
CCc1nc2c(C)cc(C)nc2n1Cc1ccc(-c2cc(-n3ccc(C)n3)ccc2-c2nnn[nH]2)cc1 [Example 218]    > 10 µM
CCc1nc2c(C)cc(C)nc2n1Cc1ccc(-c2cc(Oc3cncc(C)c3)ccc2-c2nn[nH]n2)cc1 [Example 260]    > 100 µM
CCCCC1=NC2(CCOCC2)C(=O)N1Cc1ccc(-c2cc(-c3ccccc3)ccc2-c2nnn[nH]2)cc1 [Example 156]    > 100 µM
CCOc1nc2cccc(C(=O)O)c2n1Cc1ccc(-c2cc(Oc3cccc(OC(F)(F)F)c3)ccc2-c2nn[nH]n2)cc1 [Example 335]    > 10 µM

The record that follows has no EC50 shown yet.
Incoming: Recorded EC50 of CCc1nc2c(C)cc(C)nc2n1Cc1ccc(-c2cc(C3CCCOC3)ccc2-c2nn[nH]n2)cc1 (stereo not drawn) [Example 79] , please.
Outgoing: > 10 µM

Each recorded value in this set is attributed to patent US12037324B2.
